tested on: Staphylococcus aureus; assay: microbe, parasite or virus in culture; assay type: cell-based; details: Staphylococcus aureus; read-out: Minimum Effective Concentration, Bacteriostatic
Entries and their measured MIC follow.
Answers without a unit are incomplete; give the number and then its unit.

Example cases with answers are listed next.
[
  {
    "Compound": "O=C(C(Cl)Cl)N(CCN(Cc1ccc(Oc2ccc([N+](=O)[O-])cc2)cc1)C(=O)C(Cl)Cl)Cc1ccc(Oc2ccc([N+](=O)[O-])cc2)cc1 [Example 13A]",
    "MIC": "750 µg/mL"
  },
  {
    "Compound": "Nc1ccc(Oc2ccc(CNCCCCCCCCNCc3ccc(Oc4ccc(N)cc4)cc3)cc2)cc1 [Example 14A]",
    "MIC": "7.5 µg/mL"
  }
]

Next compound, MIC to be filled in.
QUERY: Request: MIC, test system Staphylococcus aureus, entry O=[N+]([O-])c1ccc(Oc2ccc(CNCCCCCCNCc3ccc(Oc4ccc([N+](=O)[O-])cc4)cc3)cc2)cc1 [Example 7]
RESULT: 1 µg/mL

Just for reference, patent US3940441A is where these values come from.
